Measured IC50 accompanies every entry in the list below.
- subject of test: UniProt Q9UM07
- Sequence (Q9UM07 whole entry): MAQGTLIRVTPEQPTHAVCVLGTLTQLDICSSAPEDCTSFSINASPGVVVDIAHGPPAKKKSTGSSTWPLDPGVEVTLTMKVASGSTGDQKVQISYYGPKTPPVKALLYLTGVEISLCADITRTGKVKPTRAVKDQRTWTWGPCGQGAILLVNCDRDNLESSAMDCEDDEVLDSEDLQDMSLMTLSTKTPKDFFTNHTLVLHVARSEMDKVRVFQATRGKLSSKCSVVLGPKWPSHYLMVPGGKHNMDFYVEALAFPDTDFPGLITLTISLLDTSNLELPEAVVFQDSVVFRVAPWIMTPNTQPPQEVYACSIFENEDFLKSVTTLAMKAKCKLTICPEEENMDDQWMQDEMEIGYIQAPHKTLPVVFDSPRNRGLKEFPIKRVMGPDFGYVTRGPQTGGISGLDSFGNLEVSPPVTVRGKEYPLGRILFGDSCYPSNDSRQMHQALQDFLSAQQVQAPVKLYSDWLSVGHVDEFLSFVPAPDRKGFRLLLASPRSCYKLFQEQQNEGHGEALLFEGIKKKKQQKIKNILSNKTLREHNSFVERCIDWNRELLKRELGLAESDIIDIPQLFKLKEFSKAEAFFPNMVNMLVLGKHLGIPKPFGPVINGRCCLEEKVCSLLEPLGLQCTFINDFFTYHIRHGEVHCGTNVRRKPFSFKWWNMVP
- test name: RFMS Human PAD4 Functional Assay 1
- details: RFMS assay 1; 5 nM hPAD4, 250 μM BAEE substrate, 50 μM calcium, 37° C.
Please don't drop the unit; write it after the number.

Solved cases below.
compound=COc1cc(C(=O)N2C[C@H](N)C[C@@H](F)C2)cn2nc(-c3cc4cccc(C5CN(C(=O)[C@H]6CC[C@@H](O)CC6)C5)c4n3CC3CC3)c(C)c12 measured_parameter=IC50 result="40 nM"
compound=CNC(=O)c1ccc(-c2ccc3cc(-c4nn5cc(C(=O)N6CCC[C@@H](N)C6)cc(F)c5c4C)n(CC4CC4)c3n2)cn1 measured_parameter=IC50 result="1280 nM"
compound="COc1cc(C(=O)N2CC3CCC2[C@@H]3N)cc2sc(-c3cc4ccc(C)cc4n3CC3CC3)c(C)c12 (some centres unmarked)" measured_parameter=IC50 result="98 nM"
compound="COc1cc(C(=O)N2CC3CCC2[C@H]3N)cn2nc(-c3cc4ccnc(OC[C@H]5CCC(=O)N5)c4n3CC3CC3)c(C)c12 (stereo in doubt)" measured_parameter=IC50 result="50 nM"
compound="COCC(=O)N1CC(c2cccc3cc(-c4nn5cc(C(=O)N6CCC[C@@H](N)C6)cc(OC)c5c4C)n(CC4CC4)c23)C1 [Example 529]" measured_parameter=IC50 result="1530 nM"

Enquiry: Record `COc1cc(C(=O)N2CCC[C@@H](N)C2)cn2nc(-c3cc4ccc(N5CCC(C(=O)N6CC(OC)C6)CC5)cc4n3CC3CC3)c(C)c12` : what is its IC50 with UniProt Q9UM07?
Return: 180 nM

Enquiry: Also COc1cc(C(=O)N2CC3CCC2[C@@H]3N)cn2nc(-c3cc4ccc(-c5ccc(OC(F)F)c(F)c5)nc4n3CC3CC3)c(C)c12 (some centres unmarked) , if possible.
Return: 2320 nM

Enquiry: Also `COc1cc(C(=O)N2C[C@H](N)C[C@@H](F)C2)cn2nc(-c3cc4ccc(-c5ccc6c(cnn6C)c5)cc4n3CC3CC3)c(C)c12` , if possible.
Return: 460 nM
